Attribution: patent EP4233917A1

System: HBEC-5i cells
MEASUREMENT_CONTEXT: FD4 content in basolateral side after 24 h incubation with compound, then 2 h FD4; untreated BBB 10.3%
Peptide text beside a SMILES is read from it. * marks the point of attachment. X1 = C=CC1=C(C)c2cc3[nH]c(cc4nc(cc5[nH]c(cc1n2)c(C)c5CCC(=O)*)C(CCC(=O)O)=C4C)c(C)c3C=C; X3 = C=CC1=C(C)c2cc3[nH]c(cc4nc(cc5[nH]c(cc1n2)c(C)c5CCC(=O)O)C(CCC(=O)*)=C4C)c(C)c3C=C; X4 = CCC1=C(C)c2cc3[nH]c(cc4nc(cc5[nH]c(cc1n2)c(C)c5CCC(=O)*)C(CCC(=O)O)=C4C)c(C)c3CC
Binary label based on BBB FD4 (%) with cut-off 10%: below gives YES, not below gives NO.

Use the examples below as a reference point.
{"columns": ["COMPOUND", "CATEGORY_LABEL"],
 "data": [
  ["C=CC1=C(C)c2cc3[nH]c(cc4nc(cc5[nH]c(cc1n2)c(C)c5CCC(=O)O)C(CCC(=O)N[C@@H](CO)C(=O)NCC(=O)N[C@H](C(=O)N[C@@H](CCC(N)=O)C(=O)N[C@@H](CCC(=O)O)C(=O)N[C@@H](CCC(=O)O)C(=O)N[C@@H](Cc1ccc(O)cc1)C(N)=O)[C@@H](C)O)=C4C)c(C)c3C=C [PP-P3] (X3-SGTQEEY-NH2)", "YES"],
  ["C=CC1=C(C)c2cc3[nH]c(cc4nc(cc5[nH]c(cc1n2)c(C)c5CCC(=O)O)C(CCC(=O)NCCCC[C@H](NC(=O)[C@H](Cc1ccc(O)cc1)NC(=O)[C@H](CCC(=O)O)NC(=O)[C@H](CCC(=O)O)NC(=O)[C@H](CCC(N)=O)NC(=O)[C@@H](NC(=O)CNC(=O)[C@@H](N)CO)[C@@H](C)O)C(N)=O)=C4C)c(C)c3C=C [Compound P4-PP] (H-SGTQEEYK(X3)-NH2)", "NO"],
  ["C=CC1=C(C)c2cc3[nH]c(cc4nc(cc5[nH]c(cc1n2)c(C)c5CCC(=O)NCCCC[C@H](NC(=O)[C@H](CC(C)C)NC(=O)[C@H](CO)NC(=O)[C@H](Cc1ccccc1)NC(=O)[C@H](CCCNC(=N)N)NC(=O)[C@H](CCCCN)NC(=O)[C@@H](NC(=O)[C@H](CC(C)C)NC(=O)[C@H](CCC(N)=O)NC(=O)[C@H](CCC(N)=O)NC(=O)[C@@H](N)C(C)C)[C@@H](C)O)C(N)=O)C(CCC(=O)O)=C4C)c(C)c3C=C [Compound P2-PP] (H-VQQLTKRFSLK(X1)-NH2)", "NO"],
  ["C=CC1=C(C)c2cc3[nH]c(cc4nc(cc5[nH]c(cc1n2)c(C)c5CCC(=O)N[C@H](C(=O)N[C@@H](CCC(N)=O)C(=O)N[C@@H](CCC(N)=O)C(=O)N[C@@H](CC(C)C)C(=O)N[C@H](C(=O)N[C@@H](CCCCN)C(=O)N[C@@H](CCCNC(=N)N)C(=O)N[C@@H](Cc1ccccc1)C(=O)N[C@@H](CO)C(=O)N[C@@H](CC(C)C)C(N)=O)[C@@H](C)O)C(C)C)C(CCC(=O)O)=C4C)c(C)c3C=C [(I)] (X1-VQQLTKRFSL-NH2)", "NO"]
]}

Does CCC1=C(C)c2cc3[nH]c(cc4nc(cc5[nH]c(cc1n2)c(C)c5CCC(=O)N[C@@H](CO)C(=O)NCC(=O)N[C@H](C(=O)N[C@@H](CCC(N)=O)C(=O)N[C@@H](CCC(=O)O)C(=O)N[C@@H](CCC(=O)O)C(=O)N[C@@H](Cc1ccc(O)cc1)C(N)=O)[C@@H](C)O)C(CCC(=O)O)=C4C)c(C)c3CC [MP-P3] (X4-SGTQEEY-NH2) have BBB FD4 (%) strictly under 10%?
NO
